# STUDY_SYSTEM: T1, cell-bound CD73 (human, UniProt P21589 27-549)
# T1 sequence (looked up): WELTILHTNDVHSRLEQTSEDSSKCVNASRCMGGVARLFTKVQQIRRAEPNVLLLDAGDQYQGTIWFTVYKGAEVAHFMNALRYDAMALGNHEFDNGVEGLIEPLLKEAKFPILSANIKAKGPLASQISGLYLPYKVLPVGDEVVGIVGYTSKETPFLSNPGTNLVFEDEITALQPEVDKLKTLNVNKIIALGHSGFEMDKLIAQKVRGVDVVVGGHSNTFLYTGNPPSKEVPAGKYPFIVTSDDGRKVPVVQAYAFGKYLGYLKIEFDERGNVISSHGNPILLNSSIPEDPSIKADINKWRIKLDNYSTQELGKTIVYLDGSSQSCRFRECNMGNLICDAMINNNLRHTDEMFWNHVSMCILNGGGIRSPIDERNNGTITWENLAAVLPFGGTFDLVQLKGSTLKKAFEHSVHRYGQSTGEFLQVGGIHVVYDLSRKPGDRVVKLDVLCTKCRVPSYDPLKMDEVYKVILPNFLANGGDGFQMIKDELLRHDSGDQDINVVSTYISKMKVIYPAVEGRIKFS
# ASSAY_NOTES: cell-based or functional assay
Listed next: entries and their corresponding CD8 T cell proliferation [% of control], Donor A, 1 nM antibody.
# unit: % | format: bare number

{"BINDER": "C4 (antibody, human IgG1, kappa, L234A L235A, V domains shown, Humanized monoclonal antibody; also called C04; inventive anti-CD73 antibody C4) VH: QVQLVQSGAEVKKPGDSVKVSCKASGYTFTTYWMHWVRQAPGQGLEWMGAIYPGLSDTTYNQKFKGKVTMTRDTSTSTVYMKLSSLRSEDTAVYYCARLLDYAMDYWGQGTLVTVSS VL: DIQMTQSPSSLSASVGDRVTITCRASQDIRSYLNWHQQKPGKAPKLLIWYTSRLHSGVPSRFSGSGSGTDYTLTISSLQPEDFATYFCQQGETLPWTFGQGTKLEIKR", "RESULT_VALUE": 104}

Now consider a different binder.
Lookup: Can you share its CD8 T cell proliferation [% of control], Donor A, 1 nM antibody? I mean this binder: C3 (antibody, human IgG1, kappa, L234A L235A, V domains shown, Humanized monoclonal antibody; also called anti-CD73 antibody C3) VH: QVQLVQSGAEVKKPGDSVKVSCKASGYTFTTYWMHWVRQAPGQGLEWMGAIYPGLSDTTYSQKFKGKVTMTRDTSTSTVYMKLSSLRSEDTAVYYCARLLDYAMDYWGQGTLVTVSS VL: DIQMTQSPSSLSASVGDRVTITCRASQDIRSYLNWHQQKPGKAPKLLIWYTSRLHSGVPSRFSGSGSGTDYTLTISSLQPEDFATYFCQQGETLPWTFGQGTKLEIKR
Found: 103
